Every entry's value here was drawn from ChEMBL document CHEMBL3433997.

# target: Glucose transporter (Leishmania mexicana) (UniProt O61059)
# assay_method_text: ST_JUDE_LEISH: Cytotoxicity at 2uM final concentration against transgenic Leishmania Mexicana promastigotes LmGT2 that are glucose transport deficient and complemented with the L. Mexicana glucose transporter 2. Activity is measured by DNA content using SYBR green in vitro
# Assay type: functional
assay_readout: inhibition (%)
Kindly answer with a numeric value in %, unit omitted.

Qu. Please give the measured inhibition for this molecule: `O=C1C(=Cc2cc(Cc3ccccc3)ccc2O)SC(=S)N1Cc1ccccc1`
Ans. 8.43

Qu. Please give the measured inhibition for this molecule: `CCN(CC)CCN(Cc1ccc(-c2ccc(C(F)(F)F)cc2)cc1)C(=O)Cn1c(CCC2CCCCC2)nc(=O)c2ccccc21`
Ans. 0.43

Qu. Please give the measured inhibition for this molecule: `CCCC[C@H](NC(=O)OC(C)(C)C)C(=O)Nc1ccc(Cc2ccc(NC(=O)[C@H](CCCC)NC(=O)OC(C)(C)C)cc2)cc1`
Ans. 4.58

Qu. Please give the measured inhibition for this molecule: `Cc1ccccc1CNc1nccc(NCCC(=O)Nc2ccccc2)n1`
Ans. 0.01

Qu. Please give the measured inhibition for this molecule: `CCCCCCN1CCC(NCc2ccc(CN(C)C)cc2)CC1`
Ans. -7.52

Qu. Please give the measured inhibition for this molecule: `CC(=O)N(C)c1cccc(C(=O)Nc2cccc(-c3cccc(-c4nc5cccc(C)c5[nH]4)c3)c2)c1`
Ans. 11.4

Qu. Please give the measured inhibition for this molecule: `Cc1cc(Nc2nc(NCc3cccnc3)nc3ccccc23)n[nH]1`
Ans. 10

Qu. Please give the measured inhibition for this molecule: C=CCOC(=O)N1CCC(CNCc2cccc(-c3cccc(-c4nc5ccccc5[nH]4)c3)c2)C1 (centres undefined)
Ans. 0.62

Qu. Please give the measured inhibition for this molecule: `Cn1ncc2ccc(Nc3nccc(-c4ccc5c(c4)c(N)nn5C)n3)cc21`
Ans. 93.8

* * *

# target: Hexose transporter 1 (Plasmodium falciparum)
# assay_method_text: ST_JUDE_LEISH: Cytotoxicity at 2uM final concentration against transgenic Leishmania Mexicana promastigotes LmPfHT that are glucose transport deficient and complemented with the Plasmodium falciparum hexose transporter. Activity is measured by DNA content using SYBR green in vitro
# Type: functional
Can you tell me inhibition for the items I'm about to list?
Kindly answer with a numeric value in %, unit omitted.

Qu. # returns recorded inhibition (system: Hexose transporter 1 (Plasmodium falciparum)) for `Cc1[nH]c(C)c(-c2ccc(CCc3ccc(F)cc3F)cc2)c(=O)c1Cl`
Ans. 1.94

Qu. # returns recorded inhibition (system: Hexose transporter 1 (Plasmodium falciparum)) for `FC(F)(F)c1ccc2[nH]c(-c3ccc(-c4ccc(CNCCc5ccncc5)cc4)cc3)nc2c1`
Ans. -3.26

Qu. # returns recorded inhibition (system: Hexose transporter 1 (Plasmodium falciparum)) for `COc1ccc(Oc2ccc(Nc3ccnc4ccc(C(F)(F)F)cc34)cc2)cc1OC`
Ans. 6.26

Qu. # returns recorded inhibition (system: Hexose transporter 1 (Plasmodium falciparum)) for O=C(NCCCCN1CCC(c2ccc3c(c2OCC(O)c2ccc(Cl)cc2)CCCC3)CC1)c1ccc(-c2ccc(C(F)(F)F)cc2)cc1 (centres undefined)
Ans. 1.49

Qu. # returns recorded inhibition (system: Hexose transporter 1 (Plasmodium falciparum)) for COc1ccc(-c2ccc(CN(C)C3CCC(NC(=O)c4cc5ccccc5[nH]4)CC3)cc2)cn1 (centres undefined)
Ans. -1.14

Qu. # returns recorded inhibition (system: Hexose transporter 1 (Plasmodium falciparum)) for `COc1cc(-c2ccc(-c3cnc(N)nc3OC)[nH]2)cc(OC)c1OC`
Ans. 5.42

Qu. # returns recorded inhibition (system: Hexose transporter 1 (Plasmodium falciparum)) for COc1cccc(CN2CCC(N3CCc4cc(NC(=O)c5cc(C)on5)ccc43)C2)c1OC (centres undefined)
Ans. 5.08

Qu. # returns recorded inhibition (system: Hexose transporter 1 (Plasmodium falciparum)) for `COc1cc(-n2cnc3cc(-c4ccc([N+](=O)[O-])cc4)sc3c2=O)ccc1OCCN1CCCC1`
Ans. 20

Qu. # returns recorded inhibition (system: Hexose transporter 1 (Plasmodium falciparum)) for `N#Cc1ccc(NC(=O)NC2CCN(CCCCCNC(=O)/C=C/c3ccc(Cl)c(Cl)c3)CC2)cc1`
Ans. 3.17

* * *

# target: Hexose transporter 1 (Plasmodium falciparum) (UniProt O97467)
# assay_method_text: ST_JUDE_LEISH: Cytotoxicity at 2uM final concentration against transgenic Leishmania Mexicana promastigotes LmPfHT that are glucose transport deficient and complemented with the Plasmodium falciparum hexose transporter. Activity is measured by DNA content using SYBR green in vitro
# Type: functional
assay_readout: inhibition (%)
Kindly answer with a numeric value in %, unit omitted.

Qu. Please give the measured inhibition for this molecule: `CCOc1ccc(-c2nonc2NC(=O)c2ccccc2OC)cc1OCC`
Ans. 2.92

Qu. Please give the measured inhibition for this molecule: `O=C(/C=C/c1cc([N+](=O)[O-])ccc1Cl)N1CCC(CCN2CCC(c3c[nH]c4ccccc34)CC2)CC1`
Ans. 3.61

Qu. Please give the measured inhibition for this molecule: `CC(=O)N1CCC(C(=O)Nc2ccc(-c3cccc(-c4nc5cc(C(F)(F)F)ccc5[nH]4)c3)cc2)CC1`
Ans. 3.33

Qu. Please give the measured inhibition for this molecule: `CCCCN(C(=O)c1ccccc1C)c1nnc(-c2ccccc2C)s1`
Ans. 1.53

Qu. Please give the measured inhibition for this molecule: `Cc1cc(=NN=CC=Cc2ccccc2)c2ccccc2[nH]1`
Ans. 2.74

Qu. Please give the measured inhibition for this molecule: `NC(=O)c1ccc(NC(=O)CN(Cc2ccc(Cl)cc2)S(=O)(=O)c2ccccc2)cc1`
Ans. 5.01

Qu. Please give the measured inhibition for this molecule: `Cn1nccc1C(=O)NCCNCc1cccc(-c2ccc(-c3nc4ccccc4[nH]3)s2)c1`
Ans. -0.8

Qu. Please give the measured inhibition for this molecule: `CCN1CCC(N(Cc2ccc(-c3ccc(C(F)(F)F)cc3)o2)C(=O)Cn2c(CCc3cccc(F)c3F)nc(=O)c3ccccc32)CC1`
Ans. 10.6

Qu. Please give the measured inhibition for this molecule: `CCC[C@@H]([C@@H](CC(C)C)C(=O)N[C@@H](CCCCNC(=O)c1ccccn1)C(=O)Nc1nccs1)N(O)C=O`
Ans. 6.98

* * *

# target: Glucose transporter (Leishmania mexicana) (UniProt O61059)
# assay_method_text: ST_JUDE_LEISH: Cytotoxicity at 2uM final concentration against transgenic Leishmania Mexicana promastigotes LmGT2 that are glucose transport deficient and complemented with the L. Mexicana glucose transporter 2. Activity is measured by DNA content using SYBR green in vitro
# Format: functional
Can you tell me inhibition for the items I'm about to list?
Answer with the figure and its unit, nothing else.

Qu. Please give the measured inhibition for this compound: `Cc1cnc(NCCc2ccc(F)cc2)nc1NCCC(=O)Nc1ccccc1`
Ans. 2.38%

Qu. Please give the measured inhibition for this compound: `Cc1cc(N[C@@H](CC(C)C)C(=O)NC2CCCC2)nc(NCc2ccccc2C)n1`
Ans. 1.62%

Qu. Please give the measured inhibition for this compound: `Cc1onc(-c2ccc(Cl)cc2)c1-c1ccnn1S(=O)(=O)c1ccc(Cl)cc1`
Ans. 1.91%

Qu. Please give the measured inhibition for this compound: `Cc1ccc(-c2nc(Nc3ccncc3)c3ccccc3n2)s1`
Ans. 0.88%

Qu. Please give the measured inhibition for this compound: `c1cncc(-c2cc(N3CCCCC3)nc(-c3ccncc3)n2)c1`
Ans. 4.53%

Qu. Please give the measured inhibition for this compound: O=S(=O)(NC1CCN(c2ccnc3cc(Cl)ccc23)C1)c1cccs1 (stereo unspecified)
Ans. 1.61%

Qu. Please give the measured inhibition for this compound: `COc1ccc(-c2nc(NC(=O)CS(=O)(=O)c3ccccc3)sc2C)cc1`
Ans. 1.25%

Qu. Please give the measured inhibition for this compound: `CCOC(=O)c1ccc(-c2cnoc2-c2cc(CC)c(OC)cc2O)o1`
Ans. 1.38%

Qu. Please give the measured inhibition for this compound: `Cc1cccc(Cl)c1Nc1nnc(-c2cccc(C(=O)NC[C@@H]3CC[C@H]4C[C@@H]3C4(C)C)c2)o1`
Ans. 6.65%

Qu. Please give the measured inhibition for this compound: `Nc1ncc(-c2cn[nH]c2)cc1-c1nc2ccc(F)cc2[nH]1`
Ans. 1.99%

Qu. Please give the measured inhibition for this compound: `O=C(Nc1ccc(Cl)cc1)c1cccc(S(=O)(=O)NC2CCN(CC3CCCCC3)CC2)c1`
Ans. 3.31%

Qu. Please give the measured inhibition for this compound: `COc1ccc(-c2cccc(NC(=O)c3cccc(Cl)c3)c2)cc1CN(C)CCN(C)C`
Ans. -1.29%

Qu. Please give the measured inhibition for this compound: O=C(NC1CC1)c1ccc2cc(C(=O)N3Cc4ccccc4C(c4ccccc4)C3)ccc2c1 (stereo unspecified)
Ans. -1.42%

Qu. Please give the measured inhibition for this compound: Clc1ccc(OC2CCC(Cn3ccnc3)(c3ccc(Cl)cc3Cl)CC2)c(Cl)c1 (stereo unspecified)
Ans. -0.14%

Qu. Please give the measured inhibition for this compound: `COc1ccc(OC)c(Cc2cnc3nc(N)[nH]c(=O)c3c2C)c1`
Ans. 5.15%

Qu. Please give the measured inhibition for this compound: COc1ccc(C(=O)CCC(=O)N(Cc2ccc(-c3ccc(CNCCc4ccccc4)cn3)cc2)C(C)CN(C)C)cc1F (stereo unspecified)
Ans. 0.82%

Qu. Please give the measured inhibition for this compound: CC1CCc2c(C(=O)Nc3c(F)cc(F)cc3Br)csc2C1 (stereo unspecified)
Ans. -0.61%

Qu. Please give the measured inhibition for this compound: `O=C(/C=C/c1ccc(Cl)cc1)NCCCCCN1CCN(C(=O)C=Cc2ccc(Cl)c(Cl)c2)CC1`
Ans. -2.29%

Qu. Please give the measured inhibition for this compound: `CCCCc1cc(NCc2ccncc2)nc(Nc2ccc(C)cc2)n1`
Ans. 2.33%

Qu. Please give the measured inhibition for this compound: O=C(NCC1CCN(Cc2ccsc2)C1)c1cc(-c2cccc(C(F)(F)F)c2)cs1 (stereo unspecified)
Ans. 3.66%

Qu. Please give the measured inhibition for this compound: `N=C(N)NN=Cc1ccc2c(c1)Cc1ccccc1-2`
Ans. 6.46%
